system: MKL-2; experiment: qHTS assay to identify novel small-molecules to repurpose for Merkel cell carcinoma treatment (AID 1296009); details: MCC and control cell lines, CellTiter-Glo viability, 72 h; series mostly up to 46 µM; also: % is scaled to controls: 0 for no effect and ±100 for the full control effect; nearly all actives have a fitted effect of over 60% in size
Inconclusive results are not listed. The source made the active and inactive calls. Calls follow the shape of the dose curve; as a rule, active = well fitted inhibition curve with a large enough effect; inconclusive = small, poorly fitted or top-dose-only effect; inactive = flat fitted curve, though single readings scatter.
Your response should consist of one outcome taken from 1.0 for active, 0.0 for inactive

Solved cases (5 shown):
| compound | target or system | group label |
| --- | --- | --- |
| NS(=O)(=O)c1cc2c(cc1Cl)NC(CSCc1ccccc1)=NS2(=O)=O | MKL-2 | 0.0 |
| Nc1ccc(S(=O)(=O)Nc2ccc(Cl)nn2)cc1 | MKL-2 | 0.0 |
| CC(=O)O[C@@]12CO[C@@H]1C[C@H](O)[C@@]1(C)C(=O)[C@H](O)C3=C(C)[C@@H](OC(=O)[C@H](O)[C@@H](NC(=O)OC(C)(C)C)c4ccccc4)C[C@@](O)([C@@H](OC(=O)c4ccccc4)[C@H]21)C3(C)C | MKL-2 | 0.0 |
| COc1cc(C(=O)N2CCOCC2)cc(OC)c1OC | MKL-2 | 0.0 |
| O=C(O)Cc1sc(-c2ccccc2)nc1-c1ccc(Cl)cc1 | MKL-2 | 0.0 |

# input Fill in: this test's call for CC12CCC(CC1)C(C)(C)O2 is ___
# output 0.0

# input Short answer needed: outcome of this test for CC(COc1ccccc1)NC(C)C(O)c1ccc(O)cc1 (stereo not given) ?
# output 0.0

# input What classification did CC(C)(C)C(=O)C(Oc1ccc(Cl)cc1)n1ccnc1 (stereo not given) end up with in this test?
# output 0.0

# input Lab log entry: O=S(=O)(O)c1cc(I)c(O)c2ncccc12 — outcome as called in the assay?
# output 0.0

# input Identify the outcome logged in this assay for the compound shown: Nc1ccc(S(=O)(=O)NC(=O)c2ccccc2)cc1
# output 0.0

# input For this compound, state the assay outcome: CC(CN1c2ccccc2Sc2ccccc21)N(C)C (stereo not given)
# output 0.0

# input Lab log entry: N[C@@H](CSCCCO)C(=O)O — outcome as called in the assay?
# output 0.0

# input Look up the recorded call for C[C@]12CC[C@@H]3c4ccc(O)cc4CC[C@H]3[C@@H]1CCC2=O in this test.
# output 0.0

# input Recorded call for CCC(=O)Nc1ccc(O)cc1 ?
# output 0.0

----------
Assay: Drug repurposing screens with cells derived from glioblastoma tumor samples (AID 1345199); also: % is scaled to controls: 0 for no effect and ±100 for the full control effect; nearly all actives have a fitted effect of over 40% in size
Settings: GBM patient neurospheres viability, ATP luminescence, 48 h; at 20 µM (top of the series); tumour line C
Method: CD133+ cells were isolated from GBM patient biopsies and cultured as neurospheres. Neurospheres from four patients were used to screen the NCATS pharmaceutical collection (NPC) library of approved drugs and bioactive compounds. […] The neurospheres were incubated with drugs for 48 hours in 1536-well format, then assayed with an ATP content cell viability assay. […]
Records with an inconclusive call do not appear.
For each of the molecules below, state its activity, negative = cell killing.
Answers are plain numbers, in %.

Each of the following entries comes with a recorded value; kindly state activity, negative = cell killing for each.
1. CCN(CC)C(C)CN1c2ccccc2Sc2ccccc21 (configuration not stated)
2. C[C@H](N)[C@H](O)c1cccc(O)c1
3. CCn1cc(C(=O)O)c(=O)c2cnc(N3CCNCC3)nc21
4. CCCCOc1cc(C(=O)OCCN(CC)CC)ccc1N
5. CNCCCC1c2ccccc2C=Cc2ccccc21

# output
-5.52
-4.02
-6
-6.35
3.37

Below are 2 molecules. Give each one its activity, negative = cell killing.
1. CS(=O)(=O)c1ccc([C@@H](O)[C@@H](CF)NC(=O)C(Cl)Cl)cc1
2. C[C@@H]1C[C@H]2[C@@H]3C[C@H](F)C4=CC(=O)C=C[C@]4(C)[C@@]3(F)[C@@H](O)C[C@]2(C)[C@@]1(O)C(=O)CO

# output
-23.2
17.9
